target: VEGF165 (Homo sapiens, UniProt P15692-4 P15692-4:27-191); assay: SPR; overall mean +/-88; PBS + 0.1% Tween20, 20 C; double-exponential fit; settings: tags: biotinylated, Bio-Techne, captured on Neutravidin chip; chain copies: 2
Sequence (P15692 other isoform, or with tags, fused parts or gaps): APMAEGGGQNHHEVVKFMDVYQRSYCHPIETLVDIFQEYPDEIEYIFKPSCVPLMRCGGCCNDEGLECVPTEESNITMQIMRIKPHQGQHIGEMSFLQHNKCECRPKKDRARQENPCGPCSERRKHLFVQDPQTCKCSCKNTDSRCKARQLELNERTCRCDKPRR
pKd: −log10 of the molar value.
RESULT_TYPE: pKd

>>> observed_measurement("CGATATGCAGTTTGAGAAGTCGCGCATTCG (XNA, 2'-OMe U, 2'-O-MOE A, C and G) [ARC224 2'OMe-U MOE-ACG]")
7.04
